Biological target: human ether-à-go-go-related gene (hERG) potassium channel (human, UniProt Q12809)
Sequence (Q12809 whole entry, looked up): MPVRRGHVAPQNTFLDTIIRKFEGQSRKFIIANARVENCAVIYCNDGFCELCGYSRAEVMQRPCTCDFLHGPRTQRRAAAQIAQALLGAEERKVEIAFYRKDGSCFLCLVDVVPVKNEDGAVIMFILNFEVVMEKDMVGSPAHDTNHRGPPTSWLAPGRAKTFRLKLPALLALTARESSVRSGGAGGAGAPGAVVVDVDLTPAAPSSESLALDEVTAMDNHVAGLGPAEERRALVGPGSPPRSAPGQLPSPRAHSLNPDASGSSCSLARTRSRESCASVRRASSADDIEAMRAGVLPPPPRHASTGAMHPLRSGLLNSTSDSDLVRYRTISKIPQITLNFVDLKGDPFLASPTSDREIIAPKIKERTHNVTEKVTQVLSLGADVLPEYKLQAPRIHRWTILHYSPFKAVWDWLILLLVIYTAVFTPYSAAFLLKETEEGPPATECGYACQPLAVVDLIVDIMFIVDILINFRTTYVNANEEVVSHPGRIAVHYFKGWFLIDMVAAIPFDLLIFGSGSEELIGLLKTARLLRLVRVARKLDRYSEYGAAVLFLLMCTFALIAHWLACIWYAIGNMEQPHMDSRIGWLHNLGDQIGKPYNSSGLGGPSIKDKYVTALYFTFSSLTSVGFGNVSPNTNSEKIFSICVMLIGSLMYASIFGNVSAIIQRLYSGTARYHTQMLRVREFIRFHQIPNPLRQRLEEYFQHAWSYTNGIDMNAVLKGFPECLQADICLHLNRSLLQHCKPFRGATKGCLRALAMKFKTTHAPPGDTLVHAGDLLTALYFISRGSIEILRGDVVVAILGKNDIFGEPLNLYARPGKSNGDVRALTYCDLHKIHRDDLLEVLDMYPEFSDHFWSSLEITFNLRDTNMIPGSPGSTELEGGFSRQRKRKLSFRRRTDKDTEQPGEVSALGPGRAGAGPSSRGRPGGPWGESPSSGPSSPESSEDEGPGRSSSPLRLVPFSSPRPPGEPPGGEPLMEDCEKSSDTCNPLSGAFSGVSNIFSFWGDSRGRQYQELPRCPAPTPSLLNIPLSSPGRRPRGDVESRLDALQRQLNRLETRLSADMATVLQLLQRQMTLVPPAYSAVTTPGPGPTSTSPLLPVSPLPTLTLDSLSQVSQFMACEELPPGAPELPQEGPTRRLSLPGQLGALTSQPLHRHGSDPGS
Test: primary screen, population patch clamp on CHO cells stably expressing hERG; higher = less effect of the substance
Source text: Briefly, Chinese hamster ovary (CHO) cells stably expressing the hERG channel were dislodged from tissue culture flasks and dispensed into PPC plates. […] Small molecule effects on hERG current density were quantified by […].
About 2,200 (0.71%) of roughly 310,000 compounds showed an effect of 50% or more. The effect is printed as a negative number. Only a selection was taken, and strong results are over-represented in it overall.
MEASURED_ATTRIBUTE: hERG current change (%, negative = inhibition) at 1uM (%)
Hi! Could you send only the number? It should be in %, unit omitted.

CN(C)c1ccc(/C=C(\NC(=O)c2ccccc2)C(=O)NCc2cccnc2)cc1
-0.749
O=C(COc1ccccc1Cl)N1CCN(c2ccc([N+](=O)[O-])c(N3CCCCC3)c2)CC1
0.717

Please report the recorded hERG current change (%, negative = inhibition) at 1uM for Br.CCn1c(=N)n(CC(=O)c2ccc(OC)cc2)c2ccccc21 . -0.629

Now the molecule O=C(NCc1cccnc1)/C(=C/c1ccc(Cl)cc1)NC(=O)c1ccccc1 -60.8

Could you do the same for O=C(NCCc1ccc(Cl)cc1)/C(=C/c1cccnc1)NC(=O)c1ccccc1 , please? -53.8

Now the molecule Br.CCCCn1c(=N)n(CC(=O)c2ccc(OC)cc2)c2ccccc21 -62.2

Follow-up entry: CCO[C@@H]1OC(C(=O)N2CCN(Cc3ccc4c(c3)OCO4)CC2)=C[C@H](c2ccc(C(F)(F)F)cc2)[C@H]1CCCO 3.44

Another molecule: Br.COc1ccc(C(=O)Cn2c(=N)n(C)c3ccccc32)cc1 -9.98

Now this one: O=C(NCc1cccnc1)/C(=C/c1ccccc1)NC(=O)c1ccccc1 -23.3
